Biological target: GST-human TopBP1 BRCT5 A707D (human, UniProt Q92547 641-746, A707D)
Sequence (Q92547 641-746 A707D): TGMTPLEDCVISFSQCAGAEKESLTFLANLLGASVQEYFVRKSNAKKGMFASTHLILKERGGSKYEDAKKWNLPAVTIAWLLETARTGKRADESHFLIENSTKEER
Test: fluorescence polarisation
Square brackets hold non-standard residues; d marks the D form. * marks the point of attachment. FITC = O=C1OC2(c3ccc(O)cc3Oc3cc(O)ccc32)c2ccc(NC(=S)*)cc21; pS = N[C@@H](COP(=O)(O)O)C(=O)O
endpoint_name: pKd
One number for each entry, as −log10 of the molar value.

Q. Find the recorded pKd belonging to {FITC}-DTDFVPP[pS]PEEII-NH2 [FITC-labelled BLM pSer304 peptide (FITC-DTDFVPPpSPEEII-NH2)] and report it.
A. 3.49
